The reader will find reported Bliss excess values listed item by item below.
# Test system: PA-TU-8902 (Pancreatic Carcinoma);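 further: after 72 h of two-drug dosing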
# PROTOCOL DETAILS: Bliss excess, mean over the matrix (fraction); higher = more synergy
Just the number, please.

Known Bliss excess results, listed for orientation:
INSERT INTO measurements (molecule, target_or_system, assay_metric, measured) VALUES
  ('Cn1cnc2c(F)c(Nc3ccc(Br)cc3Cl)c(C(=O)NOCCO)cc21 [Selumetinib] + C=CCn1c(=O)c2cnc(Nc3ccc(N4CCN(C)CC4)cc3)nc2n1-c1cccc(C(C)(C)O)n1 [AZD1775] (first compound max 10 µM, partner max 1 µM)', 'PA-TU-8902 (Pancreatic Carcinoma)', 'Bliss excess', 0.0655),
  ('CC1(C)CCC(CN2CCN(c3ccc(C(=O)NS(=O)(=O)c4ccc(NCC5CCOCC5)c([N+](=O)[O-])c4)c(Oc4cnc5[nH]ccc5c4)c3)CC2)=C(c2ccc(Cl)cc2)C1 [Venetoclax] + C[C@@H]1COCCN1C2=NC(=NC(=C2)C3(CC3)[S@](=N)(=O)C)C4=C5C=CNC5=NC=C4 [AZD6738] (first compound max 1 µM, 7x7, partner max 10 µM)', 'PA-TU-8902 (Pancreatic Carcinoma)', 'Bliss excess', -0.0236);

--- query ---
Consider the molecule shown here: CC(=O)c1c(C)c2cnc(Nc3ccc(N4CCNCC4)cn3)nc2n(C2CCCC2)c1=O [Palbociclib] + CC1(C)CCC(CN2CCN(c3ccc(C(=O)NS(=O)(=O)c4ccc(NCC5CCOCC5)c([N+](=O)[O-])c4)c(Oc4cnc5[nH]ccc5c4)c3)CC2)=C(c2ccc(Cl)cc2)C1 [Venetoclax] (first compound max 10 µM, 7x7, partner max 1 µM) What is its recorded Bliss excess? -0.029
